Test system: Arabidopsis thaliana
assay_comment: Bioassay 2, salt stress, survival of Arabidopsis thaliana plants in 150 mM NaCl
Format: in vivo
condition_summary: 168 h, 5 ppm compound for 1 day, then 150 mM NaCl for 7 days, green individuals alive, yellowed or bleached dead, read-out: Survival Rate (%)

| molecule | responders at 5 ppm [%] |
| --- | --- |
| C=CCON=C1CN(C(=O)Cc2ccc(-c3noc(C(F)(F)F)n3)cc2)C1 [Compound 2] | 70 |
| CCON=C1CN(C(=O)C(C)c2ccc(-c3noc(C(F)(F)F)n3)cc2)C1 (centres unmarked) [G] | 80 |
| CCON=C1CN(C(=O)C(OC)c2ccc(-c3noc(C(F)(F)F)n3)cc2F)C1 (centres unmarked) [Compound 1] | 80 |
| CSc1nccc(OCc2ccc(-c3noc(C(F)(F)F)n3)cc2)n1 [Compound 5] | 80 |
| O=C(c1ccc(-c2noc(C(F)(F)F)n2)cc1)N1CCCCC1 [D] | 80 |
| FC(F)(F)c1nc(-c2ccc(COc3cc(-n4cncn4)ncn3)cc2)no1 [Compound 7] | 70 |
| O=C1CCCCN1Cc1ccc(-c2noc(C(F)(F)F)n2)cc1 [M] | 70 |
| CON=C1CN(c2cc(=O)n(Cc3ccc(-c4noc(C(F)(F)F)n4)cc3)cn2)C1 [Compound 3] | 70 |

----------
# key: entry, value: melting point
quantity: melting point

| compound | assay_result |
| --- | --- |
| COc1cncn(Cc2ccc(-c3noc(C(F)(F)F)n3)cc2)c1=O | 119 to 120 °C |
| CON=C(C)c1ccc(C2=NOC(OC)(C(F)(F)F)C2)cc1 (stereo not drawn) | 80 to 82 °C |
| O=c1cc(OCc2ccc(-c3noc(C(F)(F)F)n3)cc2)ccn1CC1CC1 | 115 to 117 °C |
| CC(=NOC/C=C/Cl)c1ccc(C2=NOC(O)(C(F)(F)F)C2)cc1 (stereo not drawn) | 126 to 128 °C |
| FC(F)(F)c1nc(-c2ccc(COc3cc(Cl)ncn3)cc2)no1 | 144 to 146 °C |
| COCCn1cccc(OCc2ccc(-c3noc(C(F)(F)F)n3)cc2)c1=O | 127 to 130 °C |

----------
# key: entry, value: Withering Index
Test system: corn
assay_comment: Bioassay 1, drought stress, corn test (foliage spray, degree of withering)
Format: in vivo
condition_summary: 2 to 3 leaf stage, 200 ppm foliage spray, 2 days at 25° C., aerial parts cut out, four stages (0: healthy to 3: complete withering), average of test series

| compound | test_target | Withering Index |
| --- | --- | --- |
| O=c1c(Cl)c(Cl)cnn1Cc1ccc(-c2noc(C(F)(F)F)n2)cc1 [J] | corn | 1.0 |
| Cc1nc(C)n(Cc2ccc(-c3noc(C(F)(F)F)n3)cc2)c(=O)c1Cl [H] | corn | 1.5 |
| CC(=NOC/C=C/Cl)c1ccc(C2=NOC(O)(C(F)(F)F)C2)cc1 (stereo not drawn) [Compound 8] | corn | 1.5 |
| COCCn1cccc(OCc2ccc(-c3noc(C(F)(F)F)n3)cc2)c1=O [Compound 11] | corn | 1.0 |
| O=C(NC12CC(C1)C2)c1ccc(-c2noc(C(F)(F)F)n2)cc1 [F] | corn | 0.5 |
| O=C(NC1CC1)c1ccn(Cc2ccc(-c3noc(C(F)(F)F)n3)cc2)n1 [K] | corn | 1.0 |
| O=c1cccnn1Cc1ccc(-c2noc(C(F)(F)F)n2)cc1 [C] | corn | 1.5 |
| CON=C(C)c1ccc(C2=NOC(OC)(C(F)(F)F)C2)cc1 (stereo not drawn) [Compound 9] | corn | 1.5 |
| CC1=CC(=O)CC(C)(C)[C@@]1(O)/C=C/C(C)=C\C(=O)O [ABA, Abscisic acid, reference compound] | corn | 1.1 |
| CC1(NC(=O)c2ccc(-c3noc(C(F)(F)F)n3)cc2)CC1 [E] | corn | 1.5 |
| COc1cncn(Cc2ccc(-c3noc(C(F)(F)F)n3)cc2)c1=O [Compound 10] | corn | 1.0 |
| CCON=C1CN(C(=O)C(OC)c2ccc(-c3noc(C(F)(F)F)n3)cc2)C1 (stereo not drawn) [B] | corn | 1.5 |
| FC(F)(F)c1nc(-c2ccc(COc3cc(Cl)ncn3)cc2)no1 [Compound 6] | corn | 1.0 |
| O=C(c1ccc(-c2noc(C(F)(F)F)n2)cc1)N1CCCCC1 [D] | corn | 1.5 |
| N#CCON=C1CN(C(=O)Cc2ccc(-c3noc(C(F)(F)F)n3)cc2)C1 [A] | corn | 1.5 |
